- TARGET SYSTEM: TRPV3-F633A (Mus musculus, UniProt Q8K424, F633A)
- METHOD DESCRIPTION: Fura-2 ratiometric Ca2+ uptake, inhibition of 2-APB-evoked response
- ASSAY SETUP: 200 µM 2-APB, n = 6; read-out: IC50, inhibition of F633A mutant
READOUT TYPE: IC50 (µM)
Dear colleague, please return just the value in µM, with no unit written.

q: Look at this compound and give its reported IC50. `CCCCOc1ccc(C(=O)CCN2CCCCC2)cc1`
a: 9.8

###

- TARGET SYSTEM: wild-type mouse TRPV3 (Mus musculus, UniProt Q8K424)
- Construct: expressed in transfected cells; host or cells: HEK 293 S GnTI- cells (baculovirus transduction)
- Sequence (Q8K424 1-791): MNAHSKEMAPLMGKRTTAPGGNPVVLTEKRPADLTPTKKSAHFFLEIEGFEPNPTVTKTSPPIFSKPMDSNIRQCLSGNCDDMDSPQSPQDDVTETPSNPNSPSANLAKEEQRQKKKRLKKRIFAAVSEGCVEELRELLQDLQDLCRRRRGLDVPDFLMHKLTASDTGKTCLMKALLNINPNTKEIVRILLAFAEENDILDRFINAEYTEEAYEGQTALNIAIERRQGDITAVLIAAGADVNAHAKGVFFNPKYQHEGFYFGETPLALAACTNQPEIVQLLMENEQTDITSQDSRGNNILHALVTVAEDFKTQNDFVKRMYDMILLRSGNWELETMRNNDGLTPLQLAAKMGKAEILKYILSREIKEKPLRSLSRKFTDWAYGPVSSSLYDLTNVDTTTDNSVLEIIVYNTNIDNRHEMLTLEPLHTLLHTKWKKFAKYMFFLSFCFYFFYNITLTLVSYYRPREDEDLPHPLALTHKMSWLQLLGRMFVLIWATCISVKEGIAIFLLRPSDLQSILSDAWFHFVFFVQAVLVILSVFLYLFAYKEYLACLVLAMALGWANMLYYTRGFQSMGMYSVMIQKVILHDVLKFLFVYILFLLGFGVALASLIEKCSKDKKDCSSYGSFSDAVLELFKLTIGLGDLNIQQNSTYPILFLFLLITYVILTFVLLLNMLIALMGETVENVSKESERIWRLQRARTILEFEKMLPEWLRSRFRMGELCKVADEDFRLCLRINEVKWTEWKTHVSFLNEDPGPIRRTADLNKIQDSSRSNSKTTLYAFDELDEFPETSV
- METHOD DESCRIPTION: Fura-2 ratiometric Ca2+ uptake, inhibition of 2-APB-evoked response
- Type: cell-based
- ASSAY SETUP: read-out: IC50, inhibition of TRPV3-mediated Ca2+ uptake
- Experimental: GFP-free C-terminally strep-tagged wild-type TRPV3, TRPV3-Y564A, TRPV3-Y594A, TRPV3-F633A, TRPV3-I663W, and TRPV3-F666A were expressed in HEK 293 S GnTI^− cells as previously described[41],[42],[53]. […] The washed cell pellets were kept on ice in the dark before taking an aliquot for fluorescence measurements. […] Fluorescence measurements were conducted using a QuantaMaster 40 spectrofluorometer (Photon Technology International) at room temperature in a quartz cuvette under constant stirring. […]
READOUT TYPE: pIC50
Give only the number. pIC50 is defined as minus log10 of concentration in molar units.

q: Look at this compound and give its reported pIC50. `CCCCOc1ccc(C(=O)CCN2CCCCC2)cc1`
a: 4.53

###

- TARGET SYSTEM: TRPV3-I663W (Mus musculus, UniProt Q8K424, I663W)
- Construct: expressed in transfected cells; host or cells: HEK 293 S GnTI- cells (baculovirus transduction)
- Sequence (Q8K424 1-791 I663W): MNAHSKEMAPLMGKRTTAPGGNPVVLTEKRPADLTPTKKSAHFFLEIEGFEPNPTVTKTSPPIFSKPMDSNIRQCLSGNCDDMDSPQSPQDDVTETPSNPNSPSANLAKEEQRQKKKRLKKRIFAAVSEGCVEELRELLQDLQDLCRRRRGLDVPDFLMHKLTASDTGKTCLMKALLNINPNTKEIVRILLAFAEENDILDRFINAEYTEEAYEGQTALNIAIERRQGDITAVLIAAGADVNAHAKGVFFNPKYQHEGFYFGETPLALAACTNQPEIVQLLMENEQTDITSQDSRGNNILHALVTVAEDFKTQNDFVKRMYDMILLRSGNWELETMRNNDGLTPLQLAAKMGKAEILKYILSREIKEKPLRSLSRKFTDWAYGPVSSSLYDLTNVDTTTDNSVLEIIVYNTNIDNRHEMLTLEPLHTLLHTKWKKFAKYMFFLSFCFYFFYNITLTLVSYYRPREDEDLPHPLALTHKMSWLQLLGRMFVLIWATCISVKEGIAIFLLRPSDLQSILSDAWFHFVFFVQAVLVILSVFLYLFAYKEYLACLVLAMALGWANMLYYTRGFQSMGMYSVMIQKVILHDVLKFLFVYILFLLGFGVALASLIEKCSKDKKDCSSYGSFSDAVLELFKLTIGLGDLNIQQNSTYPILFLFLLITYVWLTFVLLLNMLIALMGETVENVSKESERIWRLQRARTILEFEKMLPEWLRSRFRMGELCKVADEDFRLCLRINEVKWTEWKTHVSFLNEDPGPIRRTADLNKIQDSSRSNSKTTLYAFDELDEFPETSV
- METHOD DESCRIPTION: Fura-2 ratiometric Ca2+ uptake, inhibition of 2-APB-evoked response
- Assay type: cell-based
- ASSAY SETUP: 200 µM 2-APB, n = 3; read-out: IC50, inhibition of I663W mutant
READOUT TYPE: pIC50
Give only the number. pIC50 is defined as minus log10 of concentration in molar units.

q: Look at this compound and give its reported pIC50. `CCCCOc1ccc(C(=O)CCN2CCCCC2)cc1`
a: 4.50
